test system: NCI-H226 lung; assay: NCI tumour cell line growth inhibition, 48 h
Measured Attribute: TGI (µM)
Answers are plain numbers, in µM.

Recorded TGI (compound `Cc1[nH]c(=O)nc(N(CCO)/N=C/c2ccccc2Cl)c1C(=O)Nc1cc(Cl)cc(Cl)c1` ): 53.3

Field TGI (entry `COC(=O)c1ccc(C)cc1/C=C1\Cc2ccc(C)cc2C1=O` ) reads 24.9

`CCCCCCOP(=O)(OCCCCCC)C(NC(=O)OCC)(C(F)(F)F)C(F)(F)F` has a reported TGI of 66.2

Batch request: TGI for each of the following compounds.
1. O=C(NCc1ccc(Cn2c(=O)sn(-c3ccccc3)c2=O)cc1)OCc1ccc2c(Br)cc(Br)c(O)c2n1
2. Cn1ccnc1C(=O)/C=C/c1ccccc1
3. C=C1CC/C=C(\C)C(=O)C[C@@H]2[C@@H]1CC2(C)C
4. COc1ccc(OC)c(/C=C(/C)[N+](=O)[O-])c1
5. CCCCCCCCCCCCCC[n+]1ccc2c(C)c3c(c(C)c2c1)c1cc(O)ccc1n3CC

[reply]
1: 2.41; 2: 14.9; 3: 42.8; 4: 27.9; 5: 1.96

For each of the compounds below, note its TGI.
1. Cc1occc1C(=S)Nc1ccc(Cl)c(C(=O)OC(C)C2CC2)c1 (configuration not stated)
2. CCNC(=O)c1cc2c(-c3cc(C(C)(C)O)ccc3Oc3c(C)cc(F)cc3C)cn(C)c(=O)c2[nH]1
3. COc1cc2c(cc1C)NC(=O)/C2=C\c1cccc(Oc2ccccc2)c1

[reply]
1. 33.6
2. 14.9
3. 38.1

###

test system: LOX IMVI melanoma; assay: NCI tumour cell line growth inhibition, 48 h
Measured Attribute: log10(TGI) (log10 of the value in µM)
Could you please treat all values as log10 of TGI in µM?

Below, each entry is followed by its recorded log10(TGI) result.
Lab book: log10(TGI) of `COc1ccc(OC)c(/C=C(/C)[N+](=O)[O-])c1` noted as 0.49

Per the records, this compound ( `COc1cc2c(cc1C)NC(=O)/C2=C\c1cccc(Oc2ccccc2)c1` ) has log10(TGI) equal to 1.42

Given item `CN1CCC(CN2c3ccccc3Sc3ccccc32)CC1` , the value recorded as its log10(TGI) is 1.42

Give log10(TGI) for each listed item.
1. COc1ccc(OC)c(CC2CCc3nc(N)nc(N)c3C2)c1 (stereo not drawn)
2. CC1OC(OC2C(O[C@H]3CC[C@@]4(C)C(=CC[C@H]5[C@@H]6C[C@@H]7O[C@]8(CC[C@H](C)CN8)[C@@H](C)[C@@H]7[C@@]6(C)CC[C@@H]54)C3)OC(CO)C(O)C2OC2OC(CO)C(O)C(O)C2O)C(O)C(O)C1O (stereo partly drawn)
3. C[C@@H](CO)[C@@H]1CCC=C2CC[C@]3(C)[C@H](CC[C@@H]4[C@@]5(C)CCCNC(C)(C)[C@@H]5CC[C@]43C)[C@H]21
4. O=C(Nc1ccccc1)NS(=O)(=O)c1ccc(-n2nc3c(c2-c2ccc(Cl)cc2)Cc2ccccc2-3)cc1
5. N=C(N)SCc1ccc(Cl)cc1Cl (tested in a mixture with another compound)
6. CN(C)c1ccc(Nc2cc(-c3cccc(OC(F)(F)F)c3)nc3ccc(N4CCCC4)cc23)cc1

[reply]
[1.41, 1.92, 0.50, 1.67, 1.59, 0.51]
